Just for reference, patent US10660939 is where these values come from.

# target_under_test: human melanocortin receptor-4 (human, UniProt P32245 1-332)
# Sequence (P32245 whole entry): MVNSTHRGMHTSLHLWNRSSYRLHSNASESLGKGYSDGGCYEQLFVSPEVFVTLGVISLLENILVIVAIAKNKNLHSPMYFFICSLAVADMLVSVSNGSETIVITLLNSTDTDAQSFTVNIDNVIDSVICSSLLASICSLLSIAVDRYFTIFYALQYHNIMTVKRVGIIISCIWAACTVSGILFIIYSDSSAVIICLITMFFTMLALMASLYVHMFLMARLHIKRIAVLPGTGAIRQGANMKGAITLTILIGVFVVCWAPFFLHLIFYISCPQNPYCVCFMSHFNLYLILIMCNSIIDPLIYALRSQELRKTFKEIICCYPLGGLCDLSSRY
# method_description: cell-based or functional assay
Positions of bridges follow the written chain, without caps; N, C: chain ends. Non-standard residues stand in square brackets, D forms with d. 2Nal = N[C@@H](Cc1ccc2ccccc2c1)C(=O)O; Orn = NCCC[C@H](N)C(=O)O

binder	result_units	hMC4r Emax
Ac-RKN[dF]RWD-NH2 (lactam 2-7, also called Ac-Arg-cyclo(Lys-Asn-D-Phe-Arg-Trp-Asp)-NH2) [Peptide No. 155]	%	97
Ac-RKN[dF]R[2Nal]D-NH2 (lactam 2-7; SMILES CC(=O)N[C@@H](CCCNC(=N)N)C(=O)N[C@H]1CCCCNC(=O)C[C@@H](C(N)=O)NC(=O)[C@H](Cc2ccc3ccccc3c2)NC(=O)[C@H](CCCNC(=N)N)NC(=O)[C@@H](Cc2ccccc2)NC(=O)[C@H](CC(N)=O)NC1=O, also called Ac-Arg-cyclo(Lys-Asn-D-Phe-Arg-Nal2-Asp)-NH2) [Peptide No. 162]	%	82
Ac-[dR][Orn]Q[dF]RWE-NH2 (lactam 2-7) [Peptide No. 152]	%	89
